All figures here come from paper PMC3961596.

# Assay Text: 7-day multiple ascending dose
# Format: in vivo, human
# Condition Notes: human, plasma, po, 10 mg/day
Metric: AUC(0-inf) (ng·h/mL)
Numbers only, in ng·h/mL.

Prompt: If you can, please state the reported AUC(0-inf) value of CCOc1ccc(Cc2cc([C@@H]3S[C@H](CO)[C@@H](O)[C@H](O)[C@H]3O)c(OC)cc2C)cc1 .
Response: 3430

---

# Assay Text: Single ascending dose
# Type: in vivo, human
# Condition Notes: human, plasma, po, 3 mg, λz, SAD, single oral 3 mg, fasting, N = 8, mean ± SD
Metric: k el
In your response, the unit should come after the numeric value.

Prompt: If you can, please state the reported k el value of CCOc1ccc(Cc2cc([C@@H]3S[C@H](CO)[C@@H](O)[C@H](O)[C@H]3O)c(OC)cc2C)cc1 .
Response: 2.11e-05 s⁻¹
